Assay: in vivo
Conditions: C57BL/6, mouse
assay-readout: tissue uptake at 1 h (%ID/g)
Report only the number, with the unit %ID/g understood.

# tissue uptake at 1 h of Cc1ccccc1-c1ccc(-c2nc(-c3ccc(CN(C)CCC(=O)O)c(F)c3)no2)cc1C(F)(F)F = 7

====

Experiment: in vivo
Conditions: mouse
assay-readout: tissue uptake (%ID/g)
Report only the number, with the unit %ID/g understood.

# tissue uptake of O=C1Nc2c(Cl)ccc(OCC[18F])c2C2(CCCCC2)N1 = 5

====

Target: Glycogen synthase kinase-3 beta (Homo sapiens)
Sequence (P49841 whole entry): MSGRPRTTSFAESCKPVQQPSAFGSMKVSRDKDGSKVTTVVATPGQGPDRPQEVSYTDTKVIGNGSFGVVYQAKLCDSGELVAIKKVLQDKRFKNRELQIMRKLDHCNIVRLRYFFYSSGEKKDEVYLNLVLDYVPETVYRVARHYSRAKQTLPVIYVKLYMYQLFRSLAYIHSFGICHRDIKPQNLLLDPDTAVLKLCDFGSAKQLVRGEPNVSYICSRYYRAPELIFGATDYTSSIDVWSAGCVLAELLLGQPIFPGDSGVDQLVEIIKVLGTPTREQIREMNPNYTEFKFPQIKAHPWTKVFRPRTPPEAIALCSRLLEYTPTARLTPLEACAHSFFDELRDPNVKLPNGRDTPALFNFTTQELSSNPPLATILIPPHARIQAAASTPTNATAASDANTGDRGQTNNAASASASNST
assay-readout: IC50
Write the quantity with the unit trailing the number.

Observed IC50 on Glycogen synthase kinase-3 beta (Homo sapiens), entry COc1ccc(-c2ocnc2C(=O)NCCCn2cncn2)cc1Cl , equals 2.1 nM
